# key: entry, value: pIC50
- SYSTEM: human GPR84 receptor (Homo sapiens)
- Construct: host or cells: HEK293, transient transfection
- Sequence (Q9NQS5 whole entry): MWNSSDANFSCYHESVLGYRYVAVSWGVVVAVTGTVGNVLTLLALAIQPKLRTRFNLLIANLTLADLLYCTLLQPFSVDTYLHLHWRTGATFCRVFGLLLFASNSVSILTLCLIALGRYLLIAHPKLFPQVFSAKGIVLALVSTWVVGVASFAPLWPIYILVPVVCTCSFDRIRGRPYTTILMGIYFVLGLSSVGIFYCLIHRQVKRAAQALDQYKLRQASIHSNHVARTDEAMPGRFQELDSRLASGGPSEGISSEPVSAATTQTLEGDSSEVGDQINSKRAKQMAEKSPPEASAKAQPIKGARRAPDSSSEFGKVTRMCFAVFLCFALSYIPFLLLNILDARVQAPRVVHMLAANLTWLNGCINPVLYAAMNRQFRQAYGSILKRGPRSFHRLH
- PROCEDURE TEXT: Gαi biosensor BRET assay in HEK293 cells (antagonism of ZQ-16)
- Assay type: cell-based
- RUN PARAMETERS: HEK293 cells, antagonism of 200 nmol/L ZQ-16
- Description: Background—The following assays can be used for determination of GPR84 activation in living HEK293 cells. […] Bioluminescence Resonance Energy Transfer (BRET) Measurement—HEK293 cells were transfected with GPR84-Rluc8 and rGFP-FYVE for the EEs trafficking biosensor or with GPR84, Gαi2-Rluc8, GFP10-Gγ2, and Gβ1 for the Gαi biosensor. […] The BRET signal was calculated as the ratio of light emitted by acceptor (GFP10, rGFP) over the light emitted by donor (Rluc8). […]
pIC50: −log10 of the molar value.

Here is how some compounds turned out for pIC50.
COMPOUND	REPORTED VALUE
Cc1cc(N2CCN(C(C)c3ccccn3)CC2)ccc1-c1cn(CC2OCC(C)(C)CO2)cn1 (stereo not shown)	6.00 to 6.52
Cc1ccc(C#CC2CC2)cc1-c1nnn(CC2CCCCO2)n1 (stereo not shown)	< 5.52
CC(C)c1cc(C#CCN2CC(C)(C)C2)cnc1-c1cn(CC2CCCCO2)nn1 (stereo not shown)	5.52 to 6.00
C(#CC1CC1)c1ccc(-c2nnnn2CC2CCCCO2)cc1 (stereo not shown)	< 5.52
Cc1cc(C#CC2CC2)cnc1-c1cn(CC2CCCCO2)cn1 (stereo not shown)	5.52 to 6.00
Cc1cc(N2CC(C)(C)C2)ccc1-c1cn(CC2OCC(C)(C)CO2)nn1	≥ 6.52

Inquiry: Form field: reported pIC50 of Cc1cc(N2CCN(Cc3ccccn3)CC2)ccc1-c1cn(CC2CCCCO2)nn1 (stereo not shown)
Reply text: 5.52 to 6.00

Inquiry: Form field: reported pIC50 of CCc1cc(C#CCN2CC(C)(C)C2)cnc1-c1cn(CC2OCC(C)(C)CO2)nn1
Reply text: ≥ 6.52

---

- SYSTEM: human GPR84 receptor (Homo sapiens)
- Construct: host or cells: HEK293, transient transfection
- PROCEDURE TEXT: Gαi biosensor BRET assay in HEK293 cells (antagonism of ZQ-16)
- Assay type: cell-based
- RUN PARAMETERS: HEK293, single concentration 10 μM (designated F)
ASSAY READOUT: inhibition at 10 µM

MOLECULE	ASSAY READOUT	REPORTED VALUE
Cc1cc(N2CCC[C@@H](N(C)Cc3ccccc3)C2)ccc1-c1cn(C[C@H]2CCCCO2)nn1 (relative stereo) [Compound I-238]	inhibition at 10 µM	50 to 75%
Cc1cc(C#CC2CC(F)(F)C2)cnc1-c1cn(CC2OCC(C)(C)CO2)nn1 [Compound I-653]	inhibition at 10 µM	> 75%
COC(c1cn(CC2CCCCO2)nn1)c1cc(N2CC(C)(C)C2)ccc1C (stereo not drawn) [Compound I-593]	inhibition at 10 µM	≤ 25%
Cc1ccc(N2CCN(Cc3ccccn3)CC2)cc1-c1cn(CC2CCCCO2)nn1 (stereo not drawn) [Compound I-564]	inhibition at 10 µM	≤ 25%
Cc1cc(N2CCN(Cc3cccnn3)CC2)ccc1-c1cn(CC2CCCCO2)nn1 (stereo not drawn) [Compound I-548]	inhibition at 10 µM	50 to 75%

Inquiry: Recorded inhibition at 10 µM for Cc1cccc(C#Cc2cn(CC3OCC(C)(C)CO3)nn2)c1 [Compound I-790] with human GPR84 receptor (Homo sapiens), please?
Reply text: ≤ 25%

Inquiry: Recorded inhibition at 10 µM for C(#Cc1ccc(-c2cn(CC3CCCCO3)nn2)cc1)CC1CC1 (stereo not drawn) [Compound I-44] with human GPR84 receptor (Homo sapiens), please?
Reply text: ≤ 25%

Inquiry: Recorded inhibition at 10 µM for COC(c1cn(CC2CCCCO2)nn1)c1cc(C#CC2CC2)ccc1C(F)(F)F (stereo not drawn) [Compound I-655] with human GPR84 receptor (Homo sapiens), please?
Reply text: 50 to 75%

Inquiry: Recorded inhibition at 10 µM for CCc1ccc(C#CC2CC2)cc1-n1nc(CC2CCCCO2)oc1=O (stereo not drawn) [Compound I-20] with human GPR84 receptor (Homo sapiens), please?
Reply text: > 75%

Inquiry: Recorded inhibition at 10 µM for Cc1cc(C#CC2CC2)ccc1-c1cn(CC2CCC(F)(F)CO2)nn1 (stereo not drawn) [Compound I-207] with human GPR84 receptor (Homo sapiens), please?
Reply text: 50 to 75%

Inquiry: Recorded inhibition at 10 µM for Cc1cc(OCC(C)(C)N(C)C)ccc1-c1cn(C[C@H]2CCCCO2)nn1 [Compound I-289] with human GPR84 receptor (Homo sapiens), please?
Reply text: 25 to 50%

Inquiry: Recorded inhibition at 10 µM for Cc1ccc(C#CC2CC2)cc1Nc1cnn(CC2OCC(C)(C)CO2)n1 [Compound I-759] with human GPR84 receptor (Homo sapiens), please?
Reply text: ≤ 25%

---

- SYSTEM: human GPR84 receptor (Homo sapiens)
- PROCEDURE TEXT: Gαi biosensor BRET assay in HEK293 cells (antagonism of ZQ-16)
- RUN PARAMETERS: HEK293 cells, antagonism of 200 nmol/L ZQ-16
- Method: Background—The following assays can be used for determination of GPR84 activation in living HEK293 cells. […] Bioluminescence Resonance Energy Transfer (BRET) Measurement—HEK293 cells were transfected with GPR84-Rluc8 and rGFP-FYVE for the EEs trafficking biosensor or with GPR84, Gαi2-Rluc8, GFP10-Gγ2, and Gβ1 for the Gαi biosensor. […] The BRET signal was calculated as the ratio of light emitted by acceptor (GFP10, rGFP) over the light emitted by donor (Rluc8). […]
ASSAY READOUT: IC50

COMPOUND	IC50
CC1(C)COC(Cn2cc(-c3ncc(C#CC4CC4)cc3Cl)nn2)OC1 [Compound I-708]	≤ 0.3 µM
Cc1cc(C#CC2CC2)ccc1-c1cn(CC2CCC(C)(C)O2)nn1 (centres unmarked) [Compound I-164]	1 to 3 µM
Cc1cc(C#CCN(C)CC2CC2)ccc1-c1cn(CC2CCCCO2)nn1 (centres unmarked) [Compound I-121]	0.3 to 1 µM
Cc1cc(C#CC2CC2)ccc1-c1cn(CC2CC(C)(C)CO2)nn1 (centres unmarked) [Compound I-226]	1 to 3 µM
CC(C)c1cc(C#CCN2CC(C)(C)C2)cnc1-c1cn(CC2OCC(C)(C)CO2)nn1 [Compound I-727]	0.3 to 1 µM
CC1(C)COC(Cn2cc(-c3ncc(C#CCN4CC(C)(C)C4)cc3Cl)nn2)OC1 [Compound I-777]	1 to 3 µM
CC(C)Oc1cc(C#CC2CC(F)(F)C2)cnc1-c1cn(CC2OCC(C)(C)CO2)nn1 [Compound I-650]	0.3 to 1 µM
Cc1cc(C#CC2CC2)ccc1-c1cn(CC2OCC3(CC3)CO2)nn1 [Compound I-686]	0.3 to 1 µM
Cc1cc(N2CCN(Cc3ccccn3)CC2)ccc1-c1cn(C[C@H]2CCCCO2)cn1 [Compound I-671]	1 to 3 µM
Cc1cc(C#CC2(O)CCCC2)ccc1-c1cn(CC2CCCCO2)nn1 (centres unmarked) [Compound I-210]	0.3 to 1 µM

Inquiry: Form field: reported IC50 of CN(C)c1cc(C#CC(C)(C)O)ccc1-c1cn(CC2OCC(C)(C)CO2)nn1 [Compound I-719]
Reply text: 1 to 3 µM

Inquiry: Form field: reported IC50 of CCN(CC)c1cc(N2CC(C)(CO)C2)c(F)cc1-c1cn(CC2OCC3(CC3)CO2)nn1 [Compound I-801]
Reply text: ≤ 0.3 µM

Inquiry: Form field: reported IC50 of Cc1ccc(C#CC2CC2)cc1C(OC1CC1)c1cn(CC2OCC(C)(C)CO2)nn1 (centres unmarked) [Compound I-644]
Reply text: 0.3 to 1 µM

Inquiry: Form field: reported IC50 of Cc1ccc(C#CC2CC2)cc1C1(c2cn(CC3CCCCO3)nn2)OCCO1 (centres unmarked) [Compound I-604]
Reply text: 1 to 3 µM

Inquiry: Form field: reported IC50 of CC(C)Oc1cc(N2CC(C)(CO)C2)cnc1-c1cn(CC2CC(C)(C)CO2)nn1 (centres unmarked) [Compound I-501]
Reply text: 1 to 3 µM

Inquiry: Form field: reported IC50 of Cc1cc(C#CCNC(=O)OC(C)C)cnc1-c1cn(CC2CCCCO2)nn1 (centres unmarked) [Compound I-570]
Reply text: > 3 µM

Inquiry: Form field: reported IC50 of COC(c1cn(CC2CCCCO2)nn1)c1cc(C#CC2CC2)c(F)cc1C (centres unmarked) [Compound I-688]
Reply text: 0.3 to 1 µM

Inquiry: Form field: reported IC50 of CCOc1cc(C#CCOC)cnc1-c1cn(CC2OCC(C)(C)CO2)nn1 [Compound I-834]
Reply text: ≤ 0.3 µM

Inquiry: Form field: reported IC50 of CC1(C)COC(Cn2cc(-c3ccc(N4CC(C)(CO)C4)cc3OC3CC3)nn2)OC1 [Compound I-767]
Reply text: 0.3 to 1 µM

Inquiry: Form field: reported IC50 of CN(C)c1cc(N2CC(C)(CO)C2)ccc1-c1cn(CC2OCC(C)(C)CO2)nn1 [Compound I-654]
Reply text: ≤ 0.3 µM

Inquiry: Form field: reported IC50 of COC(c1cn(CC2CCCCO2)cn1)c1cc(C#CC2CC2)ccc1C (centres unmarked) [Compound I-646]
Reply text: 0.3 to 1 µM

Inquiry: Form field: reported IC50 of CC1(C)COC(Cn2cc(-c3ncc(C#CCN4CC(C)(C)C4)cc3OCC(F)(F)F)nn2)OC1 [Compound I-722]
Reply text: ≤ 0.3 µM

Inquiry: Form field: reported IC50 of Cc1cccc(-c2cn(CC#Cc3ccc(-c4cn(CC5CCCCO5)nn4)c(C)c3)nn2)c1 (centres unmarked) [Compound I-492]
Reply text: ≤ 0.3 µM

Inquiry: Form field: reported IC50 of Cc1ccc(C#CC2CC2)cc1C1(c2cn(CC3OCC(C)(C)CO3)nn2)OCCO1 [Compound I-721]
Reply text: 0.3 to 1 µM

Inquiry: Form field: reported IC50 of Cc1ccc(C#CC2CC2)cc1C(CC1CC1)c1cn(CC2OCC(C)(C)CO2)nn1 (centres unmarked) [Compound I-714]
Reply text: 1 to 3 µM

Inquiry: Form field: reported IC50 of CN(C)c1cc(C#CC2CC2)cnc1-c1cn(CC2CCCCO2)nn1 (centres unmarked) [Compound I-518]
Reply text: 1 to 3 µM

Inquiry: Form field: reported IC50 of Cc1cc(N2CCN(Cc3ccccn3)CC2)ccc1-c1cn(CC2OCC3(CC3)CO2)cn1 [Compound I-795]
Reply text: ≤ 0.3 µM

Inquiry: Form field: reported IC50 of CC1(C)CN(CC#Cc2cnc(-c3cn(CC4OCC5(CC5)CO4)nn3)c(OC3CC3)c2)C1 [Compound I-794]
Reply text: ≤ 0.3 µM

Inquiry: Form field: reported IC50 of Cc1cc(N2CCN(Cc3ccncc3)CC2)ccc1-c1cn(CC2CCCCO2)nn1 (centres unmarked) [Compound I-549]
Reply text: 1 to 3 µM
